test: serotonin-gated TRPC4 signal block – cell-based, second counter screen, HEK293 TRPC4/5HT1a, Fluo-4, counter-screen for TRPC4 inhibitor project, confirmation (AID 434978); conditions: Fluo-4 calcium flux, at 10 µM, serotonin added to trigger calcium flux; hits give high values
Active and inactive are the calls of the source.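 The calls were made as follows: active = primary screen active whose calcium signal fell more than 3 SD beyond the full-serotonin control mean in both duplicate plates; inactive = the rest.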
ENDPOINT NAME: inhibition

- CCCSc1nc(N)nc(-c2cccs2)c1C#N: 36.8% (active)
- CCOC(=O)c1ccc(N=C2C(=S)N(c3ccc(C(=O)OCC)cc3)C(=N)N2/N=C/c2ccccc2)cc1: inactive
- CC(Oc1ccc(Cl)cc1Cl)c1nc(-c2ccccn2)no1 (stereo unspecified): 22.7% (active)
- Cc1noc(C)c1CCC(=O)NC1CCCN(Cc2ccc(CC(C)C)cc2)C1 (stereo unspecified): inactive
- Cn1c2ccccc2c(=O)c2c(=O)n(C3CCCCC3)c(-c3ccco3)nc21: inactive

For this compound ( CCN(CC)c1ccc(/C=N/NC(=O)CNC(=O)c2ccccn2)cc1 ), measured inhibition is inactive

For this compound ( O=C(CCCCn1c(=O)[nH]c2ccccc2c1=O)NC1CCN(Cc2ccccc2)CC1 ), measured inhibition is inactive
